- Test protocol: protease stability score; higher = more stable; yeast display proteolysis, trypsin and chymotrypsin;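 note: log10 excess protease needed over predicted unfolded state with 0 meaning unfolded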
Short version: protease stability score at least 0.7 is 1 (yes), less is 0 (no).

DEEKATEQAKEAIKALHTGDPRTMVEMLDKDARLRVGDNEYKGRDKVRNAMEEFTKRADSVRVDSVSVHGDKAVIHFKVRYNGQTIEVVLSLSVTNGRIVKAELDYRDEDTLRRLQK = 1 (yes)
DDDATKVVKEFLSALKTNNPDRARELIDKDVRVRVGDKEIHGREQLITHIETDLKKIRIEIKHMHIDVTGEDIIIHQVFVDEHNGRPHTQTVVVFIEMNNGRVKNVRSETSS = 0 (no)
DEHVLRQVEEWLHNVQTGDEDRLIELVDPNARVEIGDKVIHGMHRMARDLRRKRENMDINIRDYRVQVRGDKARVDIEEQVHHNGRPNSRRFEIQVDADNGRVKQIKWQSES = 0 (no)
DRERLADELRRRLEKVMTTGDPTELDKLMDPNARILYGDQKFHGREHVKEFAKTLNDQYDHVTIRLVSYDIKNGEIHIVVDVVFRHNGQTRTKRINFVARVHGDKVKIESINIP = 1 (yes)
DESKQKQFEHFLEVVKTGNEEDLRKNMDKDVRVQIGDKQVHGRENIASELVRRQKEIKLHIRDMRIDVHNGRVQASVDVVDNINGKPTRYSYRFEYNIENGKLKSARIHIDPDQVRKVEE = 1 (yes)

Assess whether reported protease stability score for DHTEVKKQNEQVRKALTQGDPKTMKKMFDPNVKLQVGEKSYRGHKDLQKWAEEMHKRVDHARVDSVHARGNHVTVDVVFNINGREKRLTLRVSYHNGRINEVHMTDG sits at 0.7 or higher.
1 (yes)

One more sequence: DHDAKKRIHQLWHALQTGNPDEVVKQVDKDVKVRVGEKDIHGRDQVREDVEREQKDMRVEYKSIRVEMNGDKARVEVHYQHERDGQPRTHRADYEIKWQNGKVKEMRASQKP
0 (no)

One more sequence: DEDKRKLVEDLIEAEERGDNERIKELADKDAEYIYGDKTVEGREEHAKEVKKKHDQQRVKITSMRINAHGDKIQVSIEYTVEDNGQPRRARVHIKFVIHNGRFQSMHIQDHR
0 (no)

One more sequence: DEQEDRDMKKMYKNLQEGDDQRVADMADPNARWRVGDKTYHGKDSIRHWAKEVHDRMHFRIQSITVQNENGKVKVEIKWVTDENGKPVDQTVQVKAELHNGHIVDIDITTQS
1 (yes)

One more sequence: DKEAVNIATRYMKAWEQGDSDTLMKLMDEDVRVHYGDKVLEGREDVSRDLKRLLDHAQFEIKHVTNKDNGSVVIVNFHMIVNVNGEPVEVKVVVHFHMHNGRIKQIVIRIDPKQLRQIKG
1 (yes)

One more sequence: DKSANHQIEQLMRNINEGDKDKVREQMDPNVEVHVGDKEVHGREQYAREVRKEQEEMRVQFKVEHVKDRNGQAELRIQVQLDHNGKPETRVQHFVAVLDNGRVKSATAKIDK
0 (no)

###

- Test protocol: protease stability score; higher = more stable; yeast display proteolysis, trypsin and chymotrypsin;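 note: log10 excess protease needed over predicted unfolded state with 0 meaning unfolded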
Short version: protease stability score at least 0.3 is met, less is not met.

DEEELSEVANNMERILREGDPDKARSLADENAKAHIGDKKYHGREQIREMIHRMRTRADKVTVNELRITNGVIKIVAEFNVNGRNIEIVVHIRVNNGKISEVNFEVRDPDQYKEIYS = met

Assess whether reported protease stability score for DEEELTKTLHEIIKDFVHGDSNQLRENADPNVKLKVGDKEIRGHHEVHKWAKKLRERVDSIKVKDYSATGEKAVAHVIADINGENVEITIVIQAHNGRIKLITVDPEDDKKMKQ sits at 0.3 or higher.
not met

One more sequence: DEHAKELAKEFMEAWTKGDPDKAATLADPNVRANVGEFNVHGREDAHRAVDRFRRQMHVELDIRSMRVQGNKVQVDVSVTVTHNGRPHSNRYVVLIIFHNGRIRSVHRRREG
not met

One more sequence: DSTNVEILKEYVENQRRGNEDQLRRLMDPNVHVQVGDKQLHGDRQITDEFRRQQEHLRFSIKTYDYRDQGDKVRAHIVYEQMHNGRPETVRHNMVAEIHNGNIKYLQIESDQ
not met

One more sequence: DDRDKVKSLWKQMLTILRTGDHKRWNKLVDKDVKYNIGDKSIHGKEEAEKLVKKIKDKVDTVSQTIVDVQNHNGRIHLRLRMVNNFNGNHNTYEVNAQFEKKNGRVKMQNQTDN
not met

One more sequence: EREVVQEAAKAINSNDFRRLSELMDKDVKMQYGDKTLSGREEVETLLKSLHEQIDTFTVDHYHVEGNKAEVDARFHFNGKRLRMHLYAVAHNGRIQEMKIQATTEHQQEELSRLWR
met
